# pIC50 listing for each entry below
target.entity: HLA B*1501 (Homo sapiens, UniProt P01889, A329T/A93T/A95T/C349S/D201E/D98Y/E187L/E204Q/E69M/E70A/K202T/N87E/Q94N/R155S/R180W/S121R/S35A/S48A/V306I/V36M/Y140S/Y91S)
assay: biochemical
Where a SMILES comes first, the peptide text is derived from it.
pIC50 here is simply -log10 of the concentration when that concentration is written in mol/L.

Some solved cases for reference:
CC[C@H](C)[C@H](NC(=O)[C@@H](N)CCCCN)C(=O)N[C@@H](Cc1ccc(O)cc1)C(=O)N[C@@H](CC(N)=O)C(=O)N[C@H](C(=O)N[C@H](C(=O)N[C@@H](CC(N)=O)C(=O)N1CCC[C@H]1C(=O)N[C@@H](Cc1ccccc1)C(=O)O)[C@@H](C)O)C(C)C [3102.1223] (H-KIYNVTNPF-OH)    8.57
CC[C@H](C)[C@H](NC(=O)[C@@H](N)CCSC)C(=O)N[C@@H](Cc1ccccc1)C(=O)N[C@@H](Cc1ccccc1)C(=O)N[C@@H](CC(N)=O)C(=O)N1CCC[C@H]1C(=O)N[C@H](C(=O)N[C@@H](CO)C(=O)N[C@@H](Cc1ccccc1)C(=O)O)C(C)C [3102.0841] (H-MIFFNPVSF-OH)    8.03
CC[C@H](C)[C@H](NC(=O)[C@@H](N)Cc1ccc(O)cc1)C(=O)N[C@@H](CO)C(=O)N[C@@H](CCCCN)C(=O)N[C@H](C(=O)N[C@@H](Cc1ccccc1)C(=O)N[C@@H](CCC(=O)O)C(=O)N[C@@H](Cc1c[nH]cn1)C(=O)N[C@H](C(=O)O)C(C)C)C(C)C [3102.0810] (H-YISKVFEHV-OH)    7.03

Q: What pIC50 value was documented for this compound, CC(C)C[C@H](NC(=O)[C@@H](N)CC(C)C)C(=O)N[C@@H](Cc1ccc(O)cc1)C(=O)N[C@H](C(=O)N[C@@H](C)C(=O)N[C@@H](CC(N)=O)C(=O)N[C@@H](Cc1ccccc1)C(=O)N[C@H](C(=O)N[C@@H](Cc1ccccc1)C(=O)O)[C@@H](C)O)[C@@H](C)O [3102.0873] (H-LLYTANFTF-OH) ?
Ans: 8.62

Q: What pIC50 value was documented for this compound, CC[C@H](C)[C@H](N)C(=O)N[C@H](C(=O)N[C@@H](CO)C(=O)N[C@@H](CO)C(=O)N[C@@H](CO)C(=O)N[C@H](C(=O)N[C@@H](CC(C)C)C(=O)N[C@@H](Cc1ccc(O)cc1)C(=O)N[C@@H](Cc1ccccc1)C(=O)O)[C@@H](C)O)[C@@H](C)CC [3102.1018] (H-IISSSTLYF-OH) ?
Ans: 8.96

Q: What pIC50 value was documented for this compound, CC[C@H](C)[C@H](NC(=O)[C@@H](NC(=O)[C@@H](N)CO)[C@@H](C)CC)C(=O)N[C@H](C(=O)N[C@@H](CC(C)C)C(=O)N[C@@H](Cc1ccccc1)C(=O)N[C@@H](CCC(N)=O)C(=O)N[C@@H](CCCNC(=N)N)C(=O)N[C@@H](Cc1ccccc1)C(=O)O)C(C)C [3102.0801] (H-SIIVLFQRF-OH) ?
Ans: 8.96

Data credit: paper PMC2248166
